- Tested on: UACC-257
- assay-info: NCI tumour cell line growth inhibition, 48 h
The source made the active and inactive calls. No stated cut-off is given here; in the data, active = GI50 up to about 1.1 µM and inactive = higher.
Record form. Attribute: GI50. Fill in for each entry.

Recorded GI50 of CNC(=O)OCc1nccc2c(C)c3[nH]c4ccc(OC)cc4c3cc12 , please. 11.3 µM (inactive)

Now this one: CCOC(=O)C(C)NC(=O)N(C)C12CC3CC(CC(C3)C1)C2 (stereo unspecified) 133 µM (inactive)

Follow-up item: O=[N+]([O-])C(C(Cl)=C(Cl)Cl)=C(n1nnc2ccccc21)n1nnc2ccccc21 48.9 µM (inactive)

# iterate: COc1ccc2c(c1)C(N)=C(c1ccccc1)C2=O > 100 µM (inactive)

Quick one: O=C1C(Cl)=C(OCCCl)C(=O)c2c(O)ccc(O)c21 2.59 µM (inactive)

NC1=NC(=O)/C(=C/c2ccccc2[N+](=O)[O-])C(N)=N1 ? > 100 µM (inactive)

Let us now turn to Nc1ccc(C(=O)NN2C(=O)C(Cl)C2c2ccc(O)cc2)cc1 (stereo unspecified) 36.1 µM (inactive)

How about this compound: CCOC(=O)C1=C(C)NC(=S)NC1c1ccccc1 (stereo unspecified) > 100 µM (inactive)

One more compound: Cc1ccc(NC(=O)/C=C/c2ccccc2)c(C)c1 > 100 µM (inactive)

Try CC1SC(c2ccccc2)N(Nc2c3ccccc3nc3ccccc23)C1=O (stereo unspecified) next. 83.6 µM (inactive)

Entry CCCCCCCCCCCCCCCCNc1ccc2c(c1)OCCOCCOCCOCCO2 please 2.56 µM (inactive)

---

- Test system: SNB-19
- assay-info: NCI tumour cell line growth inhibition, 48 h
The source made the active and inactive calls. Cut-off read from the data, not from the text of the source: active = GI50 up to about 1.1 µM and inactive = higher.
Valid outcomes are listed here; reply with one: 1.0 for active, 0.0 for inactive

Outcome logged for CC12CCC3C(CCC4(O)C=CCCC34C=O)C1(O)CC(O)C2c1ccc(=O)oc1 (stereo not given) in this assay: 1.0

Next entry: O=Cc1c2ccccc2n2ccc3c4ccccc4[nH]c3c12 0.0

Follow-up entry: CCOC(=O)C1S/C(=N\c2ccc(C)c(C)c2)N=C1C (stereo not given) 0.0

CCCC(=O)Nc1cc(C(=O)N2C[C@H]3C[C@@]34C2=CC(=O)c2[nH]cc(C)c24)n(COC)c1 , same question. 1.0

Quick one: COC(=N)c1ncn(Cc2ccccc2)c1N 0.0

Now give it for COc1ccc2c(c1)[n+]([O-])c(C(=O)CC(=O)C(=O)Nc1cccc(C)c1C)c(C)[n+]2[O-] too. 0.0

How about Cc1cnc2nc(-c3ccc(F)cc3)cc(O)c2c1 ? 0.0

Would you kindly repeat that for CN1C(=N\S(=O)(=O)c2ccc(Cl)cc2)/C(=N/N=P(c2ccccc2)(c2ccccc2)c2ccccc2)c2ccccc21 ? 0.0

Note, next up: COC(=O)[C@@H](N1C(=O)c2ccccc2C1=O)C1(C)CC(Cl)=NO1 (stereo not given in full) 0.0

Check CC(C)(C)N(Cc1ccc2c(c1)OCO2)C(=O)/C=C\[S+]([O-])c1ccccc1 (stereo not given) too. 0.0

---

- Tested on: MCF7
- assay-info: NCI tumour cell line growth inhibition, 48 h
Active and inactive are the calls of the source. No stated cut-off is given here; in the data, active = GI50 up to about 1.1 µM and inactive = higher.
Classes to choose from: yes for active, no for inactive

For COc1cc(/C=C2\CCc3ccccc3C2=O)ccc1O , which call appears in the assay record? no

What do we get for CC1CC(C)(C)CC(OCCN2CCCCC2)(c2ccccc2)C1 (stereo not given) ? no

Please give the result for COC(=O)CCCC(=O)NC1=C(NCc2ccccc2)C(=O)c2ccccc2C1=O too. no

Same read-out for CC1(C)S[C@@H]2[C@H](NC(=O)CCC[C@@H](N)C(=O)O)C(=O)N2[C@H]1C(=O)O ? no

Further, for Oc1ccc(CCc2cc(O)cc(O)c2)cc1 [DIHYDRORESVERATROL] ? no

Same question for O=C1c2cc3c(cc2CC12Cc1cc4c(cc1C2=O)CCC4)CCC3 please. no

Moving on to CC(C)=CCc1c(O)ccc2c1OC1c3ccc(O)c(CC=C(C)C)c3OCC21 (stereo not given) no

Also need CS(=O)(=O)OCCN(CCOS(C)(=O)=O)c1ccc(/C=N/c2ccc(-c3csc(COc4ccccc4)n3)cc2)cc1 , thanks. no

Next up: N#C/C(=C/NC(=S)NCc1ccccc1)C(N)=O no

Cool, now CCCC(=O)Nc1cc(C(=O)N2C[C@H]3C[C@@]34C2=CC(=O)c2[nH]cc(C)c24)n(COC)c1 yes

---

- System: MCF7
- assay-info: NCI tumour cell line growth inhibition, 48 h
The source made the active and inactive calls. Rule as the data show it: active = GI50 up to about 1.1 µM and inactive = higher.
Give measured GI50 for each item. Keep answers brief.

May I ask what GI50 has been recorded for CC(=O)c1sc2n(C)c(=O)c3ccccc3[n+]2c1C ? > 100 µM (inactive)

// repeat for N#CCC(=O)Nn1c(CC#N)nnc1Cc1ccccc1 and report > 100 µM (inactive)

And O=C1c2[nH]c3ccccc3c2CCN2CCCCC12 (stereo unspecified) ? 32.1 µM (inactive)

Same question for OC1COC(OCc2ccccc2)C(O)C1O (stereo unspecified) please. > 100 µM (inactive)

Consider next the molecule CN1CCN([C@H]2C[C@H]3[C@@H]4CC=C5C[C@@H](O)CC[C@]5(C)[C@H]4CC[C@]3(C)[C@H]2O)CC1 in the same way. > 45.6 µM (inactive)

Same again, this time with O=C1C=Cc2cscc21 15.3 µM (inactive)

---

- Test system: COLO 205
- assay-info: NCI tumour cell line growth inhibition, 48 h
Active and inactive are the calls of the source. Rule as the data show it: active = GI50 up to about 1.1 µM and inactive = higher.
Give your call using only these classes: Y for active, N for inactive

Give the logged outcome of this assay for the following compound: CCN(CC)CCn1ncc2c3c(=O)c4cccnc4n(CCN(CC)CC)c3ccc21 N

Now the same for CN(C)CC1(Cc2ccccc2)CCC(Cc2ccccc2)C1=O (stereo not given) N

And the next one, COc1ccc(CN2C(=O)C(Cc3cc(OC)c(OC)c(C)c3OC)NC(=O)/C2=C/c2cc(OC)c(OC)c(C)c2OC)cc1 (stereo not given) ? N

Lookup O=C(NN1C(=O)CSC1c1ccc(Cl)c(Cl)c1)c1ccncc1 (stereo not given) N

Ok, now CC(=O)Nc1ccc(-c2nnc(SCC(=O)Nc3ccccc3)o2)cc1 N

And for CCOC(=O)C(C)NC(=O)N(C)C12CC3CC(CC(C3)C1)C2 (stereo not given) ? N

Now the same for COc1ccc(-c2nc3ccccc3c(=S)n2OC(C)=O)cc1 N

Would you mind doing COc1cc(/C=C/c2ccccn2)cc(OC)c1OC as well? N

What do you have for Cc1ccc(/C=C/C(=O)c2ccc([N+](=O)[O-])cc2)cc1 ? N

Do the same for CC(=O)OCC1OC(O[C@H]2C=C[C@@H](C(=O)OCc3ccccc3)n3c(=O)n(-c4ccccc4)c(=O)n32)C(OC(C)=O)C(OC(C)=O)C1OC(C)=O (stereo not given in full) please N

Next entry: O=Cc1c2ccccc2n2ccc3c4ccccc4[nH]c3c12 N

Proceed to COC(=O)N1C=CC2=C(C)C3Nc4ccccc4C3C(C)=C2C1 (stereo not given) N

Param item: CCCCCCCCCCCCCCCCCC(=O)OCC1OC(OC)C(NC(=O)N(CCCl)N=O)C(O)C1O (stereo not given) N

Do the same for CCOC(=O)C1S/C(=N\c2ccc(C)c(C)c2)N=C1C (stereo not given) please N

Another compound: O=C(CSc1nc2ccc([N+](=O)[O-])cc2s1)c1ccc2ccccc2c1 N

Then Cc1ccc(/C=C2/N/C(=N\N=C/C(O)C(O)C(O)C(O)CO)NC2=O)cc1 (stereo not given) ? N

Param item: COc1ccc(Cn2c(C)nc3c2C(=O)c2ccccc2C3=O)cc1 N

Same thing, different compound: COc1cc(C2c3cc4c(cc3OC(NCCO)C2C)OCO4)cc(OC)c1OC (stereo not given) Y

Try this compound next: O=C1CSC(c2c[nH]c3ccccc23)N1c1ccccc1[N+](=O)[O-] (stereo not given) N

Same thing, different compound: C=CCNC(=O)C(C)C1CCC2(C)C=CC(=O)C(C)=C2C1O (stereo not given) N

Now try O=C(N/C(=C\c1ccccc1)c1nc2ccccc2c(=O)o1)c1ccccc1 . N

Moving on to the next compound: CC(CC[C@@H](C)C1CCC2[C@@H]3CC(O)C4CC(O)[C@@H](O)C[C@]4(C)C3CC[C@@]21C)C(C)(C)C (stereo not given in full) N

Please give the result for O=P(c1ccccc1)(c1ccccc1)C1CC=C(c2ccccc2)C2(CCCC2)C1 (stereo not given) too. N

Also, c1ccc2c[n+](CCCC[n+]3ccc4ccccc4c3)ccc2c1 please. N

Do the same for CCOC(=O)/C(=C\c1ccc(OCc2ccccc2)c(OC)c1)C(=O)c1ccccc1 please N

Now the same for NC1=NC(=O)/C(=C/c2ccccc2[N+](=O)[O-])C(N)=N1 N

Next compound: Cc1cc(Cl)ccc1NC(=O)/C(Cl)=C(/Cl)C(=O)O N

And CC(=O)OCC1OC(N2C(=S)N[C@H]([C@@H](O)[C@H](O)[C@H](O)CO)[C@H]2O)C(OC(C)=O)C(OC(C)=O)C1OC(C)=O (stereo not given in full) ? N

Now give it for CCCCC(=O)Nc1ccc2cc(C(=O)OC)c(ON3C(=O)c4ccccc4C3=O)nc2n1 too. N

What do we get for CC1CCCP(=O)(c2ccccc2)CC1 (stereo not given) ? N

Same question, O=C1C(Cl)=C(OCCCl)C(=O)c2c(O)ccc(O)c21 this time N

Follow-up item: COc1nc(N)c(NC(C)=O)c(=O)n1C N

And for CC1(Cc2cc3c(cc2C2(c4ccc([N+](=O)[O-])cc4)OCCO2)OCO3)OCCO1 ? N

And the next one, C=C(Cl)C(Cl)(CBr)CCC(Cl)C(C)C (stereo not given) ? N

What do you get for Cc1ccc2c(c1)C1C(CO2)C(c2ccccc2)=NN1c1ccccc1 (stereo not given) ? N

Try O=CC1=C(C(=O)OC(c2ccccc2)c2ccccc2)N2C(=O)[C@@H](NC(=O)Cc3cccs3)[C@H]2SC1 next. N

Subsequent entry: Cc1c(C2=NN=C(/N=N/c3c(O)cccc3O)/C2=C/c2ccccc2)c(=O)n(-c2ccccc2)n1C N

Also check COc1cc([C@@H]2c3cc4c(cc3[C@H](OC3OC5COC(C(C)C)OC5C(O)C3O)C3COC(=O)[C@@H]32)OCO4)cc(OC)c1OC (stereo not given in full) N

Same thing, different compound: O=c1c2c([nH]c3cc4c(cc13)OCO4)-c1ccccc1C2 N

Also, COc1cc(C(=O)OC2CC34CCNC35CC(OC5(OC)C2O)c2cc3c(cc24)OCO3)ccc1O (stereo not given) please. N
